# Experimental System: C-terminal GST-tagged, recombinant, human IGF-1R, amino acids 954-1367 (Homo sapiens)
# Construct: human IGF-1R, amino acids 954-1367 expressed by baculovirus in Sf21 cells; GST (C)
# Protocol Notes: IGF-1R kinase activity, homogenous time-resolved fluorescence (HTRF) in vitro kinase assay
# Condition Notes: IGF-1R kinase HTRF assay, ATP 50 μM, biotinylated peptide substrate 0.5 μM, 60 minutes at room temperature
pIC50: −log10 of the molar value.
Some compounds, each annotated with its measured pIC50.

1. COc1cc(-c2nc3ccccn3c2-c2ccnc(Nc3cnn(CCN4CCCCC4)c3)n2)ccc1OCc1ccccc1 6.30 to 7.00
2. COc1cc(-c2nc3ccccn3c2-c2ccnc(Nc3cccc(CCN4CCCC4)c3)n2)ccc1OCc1ccccc1 7.00 to 7.60
3. CN(C)CCc1cccc(Nc2nccc(-c3c(-c4ccc(OCc5ccccc5)cc4F)nc4ccccn34)n2)c1 7.00 to 7.60

Let us examine a further case.
Request: Given `COc1cc(-c2nc3ccccn3c2-c2ccnc(Nc3cnn(CCO)c3)n2)ccc1OCc1ccccc1` , state its recorded pIC50.
Result: 7.00 to 7.60

---

# Experimental System: C-terminal GST-tagged, recombinant, human IGF-1R, amino acids 954-1367 (Homo sapiens)
# Construct: human IGF-1R, amino acids 954-1367 expressed by baculovirus in Sf21 cells; GST (C)
# Protocol Notes: IGF-1R kinase activity, homogenous time-resolved fluorescence (HTRF) in vitro kinase assay
# Condition Notes: IGF-1R kinase HTRF assay, ATP 50 μM, biotinylated peptide substrate 0.5 μM, 60 minutes at room temperature
Measured Attribute: IC50

Guide cases for IC50, answers given:
Compound	Result
CC(Oc1ccc(-c2nc3ccccn3c2-c2ccnc(Nc3cccc(CCN(C)C)c3)n2)cc1)c1ccccc1 (stereo not shown)	101 to 500 nM
COc1cc(N2CCOCC2)ccc1Nc1nccc(-c2c(-c3ccc(OCc4ccccc4)cc3)nc3ccccn23)n1	101 to 500 nM
COc1cc(NCC(=O)O)ccc1Nc1nccc(-c2c(-c3ccc(OCc4ccccc4)c(OC)c3)nc3ccccn23)n1	101 to 500 nM
COc1ccc(C(F)(F)F)cc1Nc1nccc(-c2c(-c3ccc(OCc4ccccc4)c(OC)c3)nc3ccccn23)n1	> 1000 nM
COc1ccccc1Nc1nccc(-c2c(-c3ccc(OCc4ccccc4)cc3)nc3sccn23)n1	> 1000 nM
COc1cc(-c2nc3ccccn3c2-c2ccnc(Nc3ccc4c(c3)CN(C)CC4)n2)ccc1OCc1ccccc1	25 to 100 nM

Request: API: value(readout=IC50, system=C-terminal GST-tagged, recombinant, human IGF-1R, amino acids 954-1367 (Homo sapiens)) for record `CN(C)CCc1cccc(Nc2nccc(-c3c(-c4ccc(OCc5ccccc5)c(Cl)c4)nc4ccccn34)n2)c1`
Result: 101 to 500 nM

---

Some molecules, each annotated with its measured pIC50.
# Experimental System: C-terminal GST-tagged, recombinant, human IGF-1R, amino acids 954-1367 (Homo sapiens)
# Construct: human IGF-1R, amino acids 954-1367 expressed by baculovirus in Sf21 cells; GST (C)
# Protocol Notes: IGF-1R kinase activity, homogenous time-resolved fluorescence (HTRF) in vitro kinase assay
# Condition Notes: IGF-1R kinase HTRF assay, ATP 50 μM, biotinylated peptide substrate 0.5 μM, 60 minutes at room temperature
pIC50: −log10 of the molar value.

1. COc1cc(-c2nc3ccccn3c2-c2ccnc(Nc3cccc(OCCN4CCCC4)c3)n2)ccc1OCc1ccccc1 > 7.60
2. COc1ccc(CN(C)CCO)cc1Nc1nccc(-c2c(-c3ccc(OCc4ccccc4)c(OC)c3)nc3ccccn23)n1 6.30 to 7.00
3. COc1cc(-c2nc3ccccn3c2-c2ccnc(Nc3cccc(N4CCOCC4)c3)n2)ccc1OCc1ccccc1 6.30 to 7.00
4. CN(C)CCc1cccc(Nc2nccc(-c3c(-c4ccc(OCc5ccccc5F)cc4)nc4ccccn34)n2)c1 6.30 to 7.00
5. COc1cc(-c2nc3ccccn3c2-c2ccnc(Nc3ccc(CCN(C)C)cc3)n2)ccc1OCc1ccccc1 > 7.60

Request: API: value(readout=pIC50, system=C-terminal GST-tagged, recombinant, human IGF-1R, amino acids 954-1367 (Homo sapiens)) for record `CS(=O)(=O)c1ccc(Nc2nccc(-c3c(-c4ccc(OCc5ccccc5)cc4)nc4ccccn34)n2)cc1`
Result: < 6.00

Request: API: value(readout=pIC50, system=C-terminal GST-tagged, recombinant, human IGF-1R, amino acids 954-1367 (Homo sapiens)) for record `COc1cc(-c2nc3ccccn3c2-c2ccnc(Nc3cnn(CCN4CCOCC4)c3)n2)ccc1OCc1ccccc1`
Result: 7.00 to 7.60

Request: API: value(readout=pIC50, system=C-terminal GST-tagged, recombinant, human IGF-1R, amino acids 954-1367 (Homo sapiens)) for record `COc1ccc(NC(=O)CN(C)C)cc1Nc1nccc(-c2c(-c3ccc(OCc4ccccc4)c(OC)c3)nc3ccccn23)n1`
Result: > 7.60

---

# Experimental System: C-terminal GST-tagged, recombinant, human IGF-1R, amino acids 954-1367 (Homo sapiens, UniProt P08069)
# Construct: human IGF-1R, amino acids 954-1367 expressed by baculovirus in Sf21 cells; GST (C); purchased Cell Signaling Technology; host or cells: baculovirus in Sf21 cells
# Sequence (P08069 954-1367): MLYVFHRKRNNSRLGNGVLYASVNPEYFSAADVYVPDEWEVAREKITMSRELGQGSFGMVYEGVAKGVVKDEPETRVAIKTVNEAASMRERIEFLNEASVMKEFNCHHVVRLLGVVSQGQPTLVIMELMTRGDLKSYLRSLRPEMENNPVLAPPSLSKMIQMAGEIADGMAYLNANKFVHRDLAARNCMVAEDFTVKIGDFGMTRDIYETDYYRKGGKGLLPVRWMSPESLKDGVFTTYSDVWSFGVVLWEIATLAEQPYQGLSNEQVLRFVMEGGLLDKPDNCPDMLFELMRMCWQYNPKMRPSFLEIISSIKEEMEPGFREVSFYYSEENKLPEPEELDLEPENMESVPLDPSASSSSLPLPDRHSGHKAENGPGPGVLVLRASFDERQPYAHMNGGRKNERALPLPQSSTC
# Protocol Notes: IGF-1R kinase activity, homogenous time-resolved fluorescence (HTRF) in vitro kinase assay
# Type: biochemical
# Condition Notes: IGF-1R kinase HTRF assay, ATP 50 μM, biotinylated peptide substrate 0.5 μM, 60 minutes at room temperature
# Experimental: IGF-1R kinase activity was assayed by a homogenous time-resolved fluorescence (HTRF) in vitro kinase assay (Mathis, G., HTRF(R) Technology. J Biomol Screen, 1999. 4(6): p. 309-314). […] The quenched reaction was allowed to stand at room temperature for 1 hour and then read in a time-resolved fluorescence detector (Envision, Perkin Elmer) at 615 nm and 665 nm simultaneously. […]
pIC50: −log10 of the molar value.
Some compounds, each annotated with its measured pIC50.

1) Cc1cc(Nc2nccc(-c3c(-c4ccc(OCc5ccccc5)cc4)nc4ccccn34)n2)n[nH]1 < 6.00
2) COc1cc(N(C)CCO)ccc1Nc1nccc(-c2c(-c3ccc(OCc4ccccc4)c(OC)c3)nc3ccccn23)n1 6.30 to 7.00
3) COc1ccc(COc2ccc(-c3nc4ccccn4c3-c3ccnc(Nc4cccc(CCN(C)C)c4)n3)cc2)cc1 6.30 to 7.00
4) CS(=O)(=O)c1cccc(Nc2nccc(-c3c(-c4ccc(OCc5ccccc5)cc4)nc4ccccn34)n2)c1 < 6.00
5) c1ccc(COc2ccc(-c3nc4ccccn4c3-c3ccnc(Nc4cc(C5CC5)n[nH]4)n3)cc2)cc1 < 6.00
6) COc1cc(N2CCOCC2)ccc1Nc1nccc(-c2c(-c3ccc(OCc4ccccc4)c(OC)c3)nc3ccccn23)n1 6.30 to 7.00

Request: Given `COc1cc(Cl)ccc1Nc1nccc(-c2c(-c3ccc(OCc4ccccc4)cc3)nc3ccccn23)n1` , state its recorded pIC50.
Result: < 6.00

---

# Experimental System: C-terminal GST-tagged, recombinant, human IGF-1R, amino acids 954-1367 (Homo sapiens)
# Construct: human IGF-1R, amino acids 954-1367 expressed by baculovirus in Sf21 cells; GST (C)
# Protocol Notes: IGF-1R kinase activity, homogenous time-resolved fluorescence (HTRF) in vitro kinase assay
# Condition Notes: IGF-1R kinase HTRF assay, ATP 50 μM, biotinylated peptide substrate 0.5 μM, 60 minutes at room temperature
Some molecules, each annotated with its measured IC50.

1. Cn1cc(Nc2nccc(-c3c(-c4ccc(OCc5ccccc5)cc4)nc4ccccn34)n2)cn1 101 to 500 nM

Request: Given `CN(C)S(=O)(=O)c1cccc(Nc2nccc(-c3c(-c4ccc(OCc5ccccc5)cc4)nc4ccccn34)n2)c1` , state its recorded IC50.
Result: > 1000 nM

Request: Given `COc1cc(-c2nc3sccn3c2-c2ccnc(Nc3ccccc3CN3CCCC3)n2)ccc1OCc1ccccc1` , state its recorded IC50.
Result: > 1000 nM

Request: Given `COc1cc(N2CCSCC2)ccc1Nc1nccc(-c2c(-c3ccc(OCc4ccccc4)c(OC)c3)nc3ccccn23)n1` , state its recorded IC50.
Result: 501 to 1000 nM

Request: Given `COc1ccc(C(F)(F)F)cc1Nc1nccc(-c2c(-c3ccc(OCc4ccccc4)cc3)nc3ccccn23)n1` , state its recorded IC50.
Result: > 1000 nM

Request: Given `COc1cc(-c2nc3ccccn3c2-c2ccnc(Nc3ccc(N4CCC(N(C)C)CC4)cc3)n2)ccc1OCc1ccccc1` , state its recorded IC50.
Result: < 25 nM

Request: Given `CN(C)CCc1cccc(Nc2nccc(-c3c(-c4ccc(OCc5ccccc5)c(F)c4)nc4ccccn34)n2)c1` , state its recorded IC50.
Result: 25 to 100 nM

Request: Given `COc1cc(N2CCC(N(C)C)CC2)ccc1Nc1nccc(-c2c(-c3ccc(OCc4ccccc4)cc3)nc3sccn23)n1` , state its recorded IC50.
Result: 25 to 100 nM

Request: Given `Cc1cc(-c2nc3ccccn3c2-c2ccnc(Nc3cccc(CCN(C)C)c3)n2)ccc1OCc1ccccc1` , state its recorded IC50.
Result: 501 to 1000 nM

Request: Given `COc1ccc(N2CCOCC2)cc1Nc1nccc(-c2c(-c3ccc(OCc4ccccc4)c(OC)c3)nc3ccccn23)n1` , state its recorded IC50.
Result: 101 to 500 nM
